List of GI50 values.
# System: C4-2B cells
# experiment: MTT cell proliferation assay, 7 d, C4-2B
# Type: cell-based
# condition_notes: Homo sapiens, 168 h, 7 d treatment
measured_attribute: GI50 (µM)

# compound, val
records = [
    ("CC1=C(/C=C/C(C)=C/C=C/C(C)=C/C(=O)Nc2ccc(O)cc2)C(C)(C)CCC1 [Compound 4-HPR, 4-hydroxyphenyl retinamide, reference compound]", 3.11),
    ("CC(O)(CS(=O)(=O)c1ccc(F)cc1)C(=O)Nc1ccc(C#N)c(C(F)(F)F)c1 (stereo not drawn) [Casodex, reference compound]", 1.51),
    ("CC1=C(/C=C/C(C)=C/C=C/C(C)=C/C(=O)O)C(C)(C)CCC1n1ccnc1 (stereo not drawn)", 9.76),
    ("CC1=C(/C=C/C(C)=C/C=C/C(C)=C/C(=O)Nc2cc(C(F)(F)F)ccc2C(F)(F)F)C(C)(C)CCC1n1ccnc1 (stereo not drawn)", 11.7),
    ("CC1=C(/C=C/C(C)=C/C=C/C(C)=C/C(=O)Nc2ccccc2)C(C)(C)CCC1n1ccnc1 (stereo not drawn)", 2.97),
    ("CC1=C(/C=C/C(C)=C/C=C/C(C)=C/C(=O)O)C(C)(C)CCC1 [ATRA, all-trans-retinoic acid, reference compound]", 11.7),
]

All values here come from paper PMC4413647.
